Measured IC50 at 48 h by item
Assay: Cytotoxicity in human SH-SY5Y cells assessed as reduction in cell viability incubated for 48 hrs by MTT assay
Assay type: toxicity, cell-based
Respond numerically; units are µM and should not be typed.

Prompt: Tell me its IC50 at 48 h given `O=c1cc(OCCCN2CCC(NCc3ccccc3)CC2)c2ccc(-c3ccc(F)nc3)cc2o1` as the entry.
Response: 12.2

Prompt: Tell me its IC50 at 48 h given `O=C(Nc1cc(-c2ccc3c(OCCCNC4CCN(Cc5ccccc5)CC4)cc(=O)oc3c2)ccn1)c1ccccc1` as the entry.
Response: 1.5

Prompt: Tell me its IC50 at 48 h given `N#Cc1cccc(CNC2CCN(CCCOc3cc(=O)oc4cc(-c5cccnc5)ccc34)CC2)c1` as the entry.
Response: 12.4

Prompt: Tell me its IC50 at 48 h given `O=C(Nc1cc(-c2ccc3c(OCCCN4CCC(NCc5ccccc5)CC4)cc(=O)oc3c2)ccn1)C1CC1` as the entry.
Response: 1.87

Prompt: Tell me its IC50 at 48 h given `O=c1cc(OCCCN2CCC(CNCc3ccccc3F)CC2)c2ccc(-c3cccnc3)cc2o1` as the entry.
Response: 6.49

Prompt: Tell me its IC50 at 48 h given `O=C(Nc1cc(-c2ccc3c(OCCCNC4CCN(Cc5ccccc5)CC4)cc(=O)oc3c2)ccn1)C1CC1` as the entry.
Response: 3.41

Prompt: Tell me its IC50 at 48 h given `O=c1cc(OCCCNC2CCN(Cc3ccccc3)CC2)c2ccc(-c3cccnc3)cc2o1` as the entry.
Response: 10.7

====

Assay: Selectivity index, ratio of IC50 for inhibition of equine serum BuChE to IC50 for inhibition of electric eel AChE
experimentalEndpoint: Ratio IC50
Respond numerically, and do not add a unit to the figure.

itemSmiles	Ratio IC50
COc1ccc(CNC2CCN(CCCOc3cc(=O)oc4cc(-c5cccnc5)ccc34)CC2)cc1	0.982
O=c1cc(OCCCN2CCC(NCc3cccc(F)c3)CC2)c2ccc(-c3cccnc3)cc2o1	2.82
O=c1cc(OCCCN2CCC(NCc3ccccc3)CC2)c2ccc(-c3ccc(F)nc3)cc2o1	12.5
O=c1cc(OCCCN2CCC(NCc3ccsc3)CC2)c2ccc(-c3cccnc3)cc2o1	3.03
O=c1cc(OCCCN2CCC(CNCc3ccccc3F)CC2)c2ccc(-c3cccnc3)cc2o1	2.91
O=c1cc(OCCCN2CCC(NCc3ccccc3)CC2)c2ccc(-c3cccnc3)cc2o1	2.3
O=C(Nc1cc(-c2ccc3c(OCCCN4CCC(NCc5ccccc5)CC4)cc(=O)oc3c2)ccn1)C1CC1	2.99
O=c1cc(OCCCN2CCC(NCc3ccccc3)CC2)c2ccc(Br)cc2o1	1.58

Prompt: Tell me its Ratio IC50 given `O=c1cc(OCCCN2CCC(NCc3ccc(F)c(F)c3)CC2)c2ccc(-c3cccnc3)cc2o1` as the entry.
Response: 1.78

Prompt: Tell me its Ratio IC50 given `O=c1cc(OCCCNC2CCN(Cc3ccccc3)CC2)c2ccc(-c3cccnc3)cc2o1` as the entry.
Response: 24.6

====

Target: Beta-secretase 1 (Homo sapiens, UniProt P56817)
Sequence (P56817 whole entry): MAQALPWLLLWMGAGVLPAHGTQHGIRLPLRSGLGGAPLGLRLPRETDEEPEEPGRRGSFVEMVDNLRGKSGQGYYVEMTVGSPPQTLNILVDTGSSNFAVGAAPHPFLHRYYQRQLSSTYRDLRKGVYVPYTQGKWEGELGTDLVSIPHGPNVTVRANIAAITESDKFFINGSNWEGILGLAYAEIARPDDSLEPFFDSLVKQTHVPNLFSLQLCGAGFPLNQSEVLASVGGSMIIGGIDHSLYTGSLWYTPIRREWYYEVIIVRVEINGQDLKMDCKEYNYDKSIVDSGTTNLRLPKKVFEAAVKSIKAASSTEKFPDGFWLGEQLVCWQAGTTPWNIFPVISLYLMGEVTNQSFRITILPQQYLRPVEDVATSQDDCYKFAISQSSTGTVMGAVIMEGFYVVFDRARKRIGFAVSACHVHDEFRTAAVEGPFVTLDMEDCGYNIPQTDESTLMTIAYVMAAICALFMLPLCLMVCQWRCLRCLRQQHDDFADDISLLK
Assay: Inhibition of recombinant human BACE1 using fluorogenic polypeptide Mca-SEVNLDAEFRK(Dpn)RRNH2 as substrate at 10 uM incubated for 60 mins by FRET assay relative to control
experimentalEndpoint: inhibition (%)
Respond numerically; units are % and should not be typed.

compound	readingUnit	inhibition
O=c1cc(OCCCN2CCC(NCc3ccsc3)CC2)c2ccc(-c3cccnc3)cc2o1	%	64.7
O=C(Nc1cc(-c2ccc3c(OCCCNC4CCN(Cc5ccccc5)CC4)cc(=O)oc3c2)ccn1)C1CC1	%	30.9
O=c1cc(OCCCNC2CCN(Cc3ccccc3)CC2)c2ccc(-c3cccnc3)cc2o1	%	86.8
Cc1ccc(CNC2CCN(CCCOc3cc(=O)oc4cc(-c5cccnc5)ccc34)CC2)cc1	%	36.4

Prompt: Tell me its inhibition given `O=c1cc(OCCCN2CCC(NCc3cccc(F)c3)CC2)c2ccc(-c3cccnc3)cc2o1` as the entry.
Response: 34

Prompt: Tell me its inhibition given CC(C)=CC(O)C/C(C)=C/COc1c2ccoc2cc2oc(=O)ccc12 (stereo not drawn) as the entry.
Response: 10.2
